Molecular target: Nuclear receptor coactivator 2 (Homo sapiens) (UniProt Q15596)
Sequence (Q15596 whole entry, looked up, the tested form may be a part): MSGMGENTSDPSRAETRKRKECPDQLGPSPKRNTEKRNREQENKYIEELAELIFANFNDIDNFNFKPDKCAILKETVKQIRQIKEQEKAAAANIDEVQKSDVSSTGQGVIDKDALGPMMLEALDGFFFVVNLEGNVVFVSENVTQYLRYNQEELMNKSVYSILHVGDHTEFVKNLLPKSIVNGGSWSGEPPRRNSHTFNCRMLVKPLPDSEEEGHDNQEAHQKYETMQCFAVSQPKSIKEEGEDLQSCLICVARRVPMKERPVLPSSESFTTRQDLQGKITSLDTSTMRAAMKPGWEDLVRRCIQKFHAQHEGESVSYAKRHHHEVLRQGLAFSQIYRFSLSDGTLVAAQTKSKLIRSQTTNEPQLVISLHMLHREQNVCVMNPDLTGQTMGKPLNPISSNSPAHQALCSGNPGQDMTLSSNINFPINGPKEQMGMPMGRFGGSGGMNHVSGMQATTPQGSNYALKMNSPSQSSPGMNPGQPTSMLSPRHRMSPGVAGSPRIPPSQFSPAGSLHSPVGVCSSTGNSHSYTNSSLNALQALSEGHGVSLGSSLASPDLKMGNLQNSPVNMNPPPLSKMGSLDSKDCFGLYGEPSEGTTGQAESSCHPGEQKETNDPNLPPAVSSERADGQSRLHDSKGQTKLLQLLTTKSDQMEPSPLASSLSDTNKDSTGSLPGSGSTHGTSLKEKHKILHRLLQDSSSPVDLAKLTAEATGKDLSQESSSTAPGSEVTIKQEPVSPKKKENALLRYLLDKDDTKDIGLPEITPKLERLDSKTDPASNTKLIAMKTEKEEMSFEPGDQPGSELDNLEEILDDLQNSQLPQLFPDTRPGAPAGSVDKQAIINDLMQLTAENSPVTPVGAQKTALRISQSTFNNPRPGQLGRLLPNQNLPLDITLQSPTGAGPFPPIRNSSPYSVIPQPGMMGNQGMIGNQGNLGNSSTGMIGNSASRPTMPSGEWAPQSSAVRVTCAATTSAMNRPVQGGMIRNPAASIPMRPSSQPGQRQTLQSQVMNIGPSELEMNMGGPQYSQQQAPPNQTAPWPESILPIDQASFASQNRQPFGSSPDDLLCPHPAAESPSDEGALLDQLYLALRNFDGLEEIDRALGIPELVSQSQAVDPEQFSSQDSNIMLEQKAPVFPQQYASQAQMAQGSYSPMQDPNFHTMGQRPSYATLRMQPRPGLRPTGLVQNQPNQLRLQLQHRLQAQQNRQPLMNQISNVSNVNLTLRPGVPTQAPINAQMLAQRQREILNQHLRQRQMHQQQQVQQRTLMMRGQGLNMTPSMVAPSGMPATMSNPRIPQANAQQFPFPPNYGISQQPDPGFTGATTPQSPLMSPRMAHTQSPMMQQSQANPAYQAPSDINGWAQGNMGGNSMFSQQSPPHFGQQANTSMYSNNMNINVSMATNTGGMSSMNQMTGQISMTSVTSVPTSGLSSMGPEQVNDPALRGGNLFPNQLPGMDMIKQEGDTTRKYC
Experiment: inhibition of GAL4-SRC2 reporter transcription – cell-based, HEK293, GAL4-SRC2 luciferase, powder samples, selectivity assay for SRC3 inhibitor project, late-stage follow-up (AID 651782)
Conditions: luminescence
Active and inactive are the calls of the source.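 How the source made its calls: active means IC50 of 10 µM or lower; inactive means IC50 above 10 µM.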
Possible outcomes: active, inactive

- Compound: "CN1C(=O)C2(C(C#N)=C(N)N(c3cc(Cl)cc(Cl)c3)C3=C2C(=O)CC(C)(C)C3)c2ccccc21 (stereo not drawn)"
  Assigned Class: "inactive"
- Compound: "O=C(Nc1ccccc1Oc1ccccc1)c1cc([N+](=O)[O-])ccc1Cl"
  Assigned Class: "active"
- Compound: "OCCN1CCN(C(=S)c2ccc(-c3ccccc3)cc2)CC1"
  Assigned Class: "active"
- Compound: "CC(C)(C)c1ccc(-c2noc(CCC(=O)Nc3cccnc3)n2)cc1"
  Assigned Class: "inactive"
- Compound: "CCCNC(=O)c1nnsc1S(=O)(=O)c1ccc(Cl)cc1"
  Assigned Class: "inactive"
- Compound: "CN1C(=O)C2(C(C#N)=C(N)N(c3cc(Cl)cc(Cl)c3)C3=C2C(=O)CCC3)c2ccccc21 (stereo not drawn)"
  Assigned Class: "inactive"
- Compound: "O=C(COC(=O)c1ccc[nH]c1=O)Nc1ccc(N2CCCCC2)cc1"
  Assigned Class: "inactive"
- Compound: "Cc1ccc(OCC(=O)c2cc(C)n(-c3ccccc3)c2C)c([N+](=O)[O-])n1"
  Assigned Class: "inactive"
